# Test system: U2OS
# test-protocol: Multiplex assay against U2OS
# Assay type: toxicity, cell-based
# protocol-conditions: human, 48 h, 10 µM, compound concentration 10 uM, replicate 2
value-type: Total Cell Count
// return a plain number; no unit text

For record `CCNC1(C(N)=O)CCN(c2ncnc3c2nc(-c2ccccc2Cl)n3-c2ccc(Cl)cc2)CC1` the listed Total Cell Count is 138

Input `Cc1nc2ccc(Oc3ccc(F)cc3)cc2c(=O)n1C[C@H]1CCCN(C(C)C)C1.Cl` . Output Total Cell Count: 103

Reported Total Cell Count for Cl.Clc1ccc2nsnc2c1NC1=NCCN1 [TIZANIDINE HYDROCHLORIDE] was 149

Value of Total Cell Count reported for the compound CN1CCN2c3ncccc3Cc3ccccc3C2C1 (centres undefined) is 170

get_value(item= `COc1c(C)cc(NC(=O)c2nn(Cc3ccc(F)cc3)c3c2CN(C(=O)c2ccc[nH]2)C[C@]3(C)C(N)=O)cc1C` , readout=Total Cell Count) returns 150

Total Cell Count measured on Cc1ccc(C(C)(O)c2nc3ccccc3s2)c(C)c1 (centres undefined) = 147

Per the record, `N#Cc1c(N)nc(SCc2csc(-c3ccc(Cl)cc3)n2)c(C#N)c1-c1ccc(OCCO)cc1` has Total Cell Count of 109

Memo: `Oc1c(CN2CCN(c3ccccn3)CC2)cc(Cl)c2cccnc12` , reported Total Cell Count: 144

Documented Total Cell Count of `C[C@@H]1C[C@H]2[C@@H]3CCC4=CC(=O)C=C[C@]4(C)[C@@]3(F)[C@@H](O)C[C@]2(C)[C@@]1(O)C(=O)CO` : 294

Given item `O=C(NCC(=O)N1CC[C@H](N[C@H]2CC[C@@](O)(c3ccc(-c4ncccn4)cn3)CC2)C1)c1cccc(C(F)(F)F)c1` , the value recorded as its Total Cell Count is 138

For this compound ( `CN(C)c1ccnc2sc3c(=O)n(N4CCCCCC4)cnc3c12` ), measured Total Cell Count is 140

According to the records, this compound `N[C@@]1(C(=O)O)CO[C@H]2[C@H](C(=O)O)[C@H]21` displays Total Cell Count of 228

`CSCC[C@H](NC=O)C(=O)N[C@@H](CC(C)C)C(=O)N[C@@H](Cc1ccccc1)C(=O)O` has a reported Total Cell Count of 41

For reference, reported Total Cell Count for `C[C@H]1[C@H]2CC[C@H]3[C@@H]4CC=C5C[C@@H](N(C)C)CC[C@]5(C)[C@H]4CC[C@]23CN1C` stands at 175

Reported Total Cell Count for `Cc1ccc(-c2ccc(F)cc2COc2ccc(CCC(=O)O)cc2)cc1` was 236

compound `CC(=O)NCCc1c(Cc2ccccc2)[nH]c2ccccc12` , Total Cell Count observed: 354

Sure, the documented Total Cell Count for `CC(C)(C)c1ccc(S(=O)(=O)Nc2ccc(Cl)cc2C(=O)c2cc[n+]([O-])cc2)cc1` is 215

Record `O=C(O)c1cc2ccccc2c(Cc2c(O)c(C(=O)O)cc3ccccc23)c1O` , field Total Cell Count: 218

Recorded result, `CCOc1c2c(c(OCC)c3ncccc13)CN(c1ccc(CS(=O)(=O)NC(=O)Cc3ccccc3OC)cc1C)C2=O` , Total Cell Count: 236

The reported value for `CC[C@H]1OC(=O)[C@H](C)[C@@H](O[C@H]2C[C@@](C)(OC)[C@@H](O)[C@H](C)O2)[C@H](C)[C@@H](O[C@@H]2O[C@H](C)C[C@H](N(C)C)[C@H]2O)[C@@]2(C)CC(C)=C(O2)[C@H](C)[C@@H](O)[C@]1(C)O` in terms of Total Cell Count is 112

Note to self: Total Cell Count recorded for `O=C1COc2nccc(-c3ccccc3F)c2CN1Cc1cc(C(F)(F)F)cc(C(F)(F)F)c1` was 151

# Total Cell Count (compound: CCCN1CCC[C@@H]2Cc3n[nH]cc3C[C@H]21.Cl [QUINPIROLE HYDROCHLORIDE] ) is 251

Reported Total Cell Count ( `O=C(NCCO)c1cccc(-c2cc(Nc3ccc(OC(F)(F)F)cc3)ncn2)c1` ) = 143

So, `c1cc(OCCCN2CCCCC2)ccc1CN1CCCCC1` ? Its Total Cell Count was 245

Form: compound = CNC[C@H](O)c1ccc(O)c(O)c1 [EPINEPHRINE] ; Total Cell Count = 87

response.value for `O=C(O)Cc1ccccc1Nc1c(Cl)cccc1Cl` (field: Total Cell Count) = 220

Note to self: Total Cell Count recorded for `C[C@H](NC(=O)c1c(C(F)F)nn(C)c1Oc1cccc(C(F)(F)F)c1)c1ccc(C(=O)O)cc1` was 223

Entry `CCCn1c(=O)c2[nH]c(C3CCCC3)nc2n(CCC)c1=O` , Total Cell Count reported as 165

Given item `CN(C)CCCc1cc(C(=O)Nc2ccc(-c3ccncc3)cc2)ccc1O.Cl.Cl` , the value recorded as its Total Cell Count is 160

Query `COc1cc(C(=O)N(CCCc2ccccc2)Cc2ccc(CC(=O)O)cc2)cc(OC)c1C` yields Total Cell Count of 280

Total Cell Count in this record for O=S(=O)(c1ccccc1)c1cnc2c(N3CCNCC3)cccc2c1 [INTEPIRDINE] : 201

Field Total Cell Count (entry COc1ccc2c(c1)C(C(=O)N(Cc1ccc(N(C)C)cc1)c1ccc(C(C)C)cc1)CCC2.Cl (centres undefined) ) reads 126

The value of Total Cell Count measured for the compound `COc1cc(NC(=O)CCN2CCC(OC(=O)Nc3ccccc3-c3ccccc3)CC2)c(Cl)cc1CNC[C@H](O)c1ccc(O)c2[nH]c(=O)ccc12` turned out to be 105

Value of Total Cell Count reported for the compound `Cc1ccc(/C(=C\CN2CCCC2)c2ccccn2)cc1` is 203
